# ASSAY_PROTOCOL: oral LD50
# PARTICULARS: in vivo
# Description: In addition the oral LD50 was determined for the compounds of the invention.
OBSERVATION_TYPE: LD50

The examples below pair each entry with its known result.
Cc1cc(=O)oc2cc(OCC#CCN(C)C)ccc12; 500 mg/kg
C#CCOc1ccc2c(C)cc(=O)oc2c1; 1500 mg/kg
C#CCOc1ccc2c(C)c(CC)c(=O)oc2c1; 1000 mg/kg
C#CCOc1ccc2c(-c3ccccc3[N+](=O)[O-])cc(=O)oc2c1; > 2000 mg/kg
Cc1cc(=O)oc2cc(OCC#CCN3CCOCC3)ccc12; 1500 mg/kg
C#CCOc1ccc2c(C)c(CC=C)c(=O)oc2c1; 1500 mg/kg

--- query ---
Please look up its LD50: `C#CCOc1ccc2ccc(=O)oc2c1`
1500 mg/kg
